- System: HL60 cells
- PROTOCOL DETAILS: AsedaSciences SYSTEMETRIC Cell Health Screen (flow cytometry toxicity profiling)
- CONDITION SUMMARY: HL60, 4 h, 5 nM–100 µM, probability 0–1, n = 2
Entries annotated with measured MMP: Mitochondrial membrane depolarization score
OBSERVED PROPERTY: MMP: Mitochondrial membrane depolarization score

# COMPOUND, ASSAY RESULT
records = [
    ("C#Cc1ccc(F)c(Nc2ncnc3cc(OC)c(OC)cc23)c1 [Compound 42]", 0.89),
    ("C#Cc1cc(Nc2ncnc3ccc(I)cc23)ccc1F [Compound 36]", 0.13),
    ("CC(C)NCC(O)COc1cccc2ccccc12 (stereo not drawn) [Propranolol, reference compound]", 0.010),
    ("C#Cc1cccc(Nc2ncnc3ccc(Cl)cc23)c1 [Compound 7]", 0.015),
    ("C#Cc1cccc(Nc2ncnc3ccc(S(C)(=O)=O)cc23)c1 [Compound 19]", 0.21),
    ("C#Cc1cccc(Nc2ncnc3cc(OC)ccc23)c1 [Compound 11]", 0.068),
    ("CC/C(=C(\\c1ccccc1)c1ccc(OCCN(C)C)cc1)c1ccccc1 [Tamoxifen, reference compound]", 1.00),
    ("COc1cc2ncnc(Nc3ccc(F)c(Cl)c3)c2cc1OCCCN1CCOCC1 [Gefitinib, reference compound]", 0.99),
    ("CN1CCN(CCCN2c3ccccc3Sc3ccc(Cl)cc32)CC1 [Prochlorperazine, reference compound]", 1.00),
]
